Taken from patent EP4230620A1.

Assign Nachauflaufwirkung gegen ORYZA to each entry below.
Tested on: Oryza sativa
Assay: Post-emergence action on crop plants in greenhouse, ORYZA
Assay type: in vivo
Conditions: 5 g/ha, crop plant, visual rating after ca. 3 weeks, 100% = plants dead, 0% = like control plants
Give the value, in units of %, as a plain number.

# value of Nachauflaufwirkung gegen ORYZA, Oryza sativa, item COCCOC(=O)C(C)(C)OC(=O)c1cc(-n2c(=O)cc(C(F)(F)F)n(N)c2=O)ccc1Cl = 0

# value of Nachauflaufwirkung gegen ORYZA, Oryza sativa, item CC(C)=NOC(=O)C(C)(C)OC(=O)c1cc(-n2c(=O)cc(C(F)(F)F)n(N)c2=O)ccc1Cl = 0

# value of Nachauflaufwirkung gegen ORYZA, Oryza sativa, item CC(C)(OC(=O)c1cc(-n2c(=O)cc(C(F)(F)F)n(N)c2=O)ccc1Cl)C(=O)OCC#N = 20

# value of Nachauflaufwirkung gegen ORYZA, Oryza sativa, item CC(C)(OC(=O)c1cc(-n2c(=O)cc(C(F)(F)F)n(N)c2=O)ccc1Cl)C(=O)O = 0

# value of Nachauflaufwirkung gegen ORYZA, Oryza sativa, item CC(C)(OC(=O)c1cc(-n2c(=O)cc(C(F)(F)F)n(N)c2=O)ccc1Cl)C(=O)OCc1ccccn1 = 0

---

System: Triticum aestivum
Test: Post-emergence action on crop plants in greenhouse, TRZAS
Type: in vivo
Conditions: 20 g/ha, crop plant, visual rating after ca. 3 weeks, 100% = plants dead, 0% = like control plants
measurementKind: Nachauflaufwirkung gegen TRZAS (%)
Give the value, in units of %, as a plain number.

# value of Nachauflaufwirkung gegen TRZAS, Triticum aestivum, item CC(C)(OC(=O)c1cc(-n2c(=O)cc(C(F)(F)F)n(N)c2=O)ccc1Cl)C(=O)OCc1ccccn1 [I.2-286] = 10

# value of Nachauflaufwirkung gegen TRZAS, Triticum aestivum, item CC(C)=NOC(=O)C(C)(C)OC(=O)c1cc(-n2c(=O)cc(C(F)(F)F)n(N)c2=O)ccc1Cl [I.2-491] = 20

# value of Nachauflaufwirkung gegen TRZAS, Triticum aestivum, item C=CCOC(=O)C(C)(C)OC(=O)c1cc(-n2c(=O)cc(C(F)(F)F)n(N)c2=O)ccc1Cl [I.2-471] = 10

# value of Nachauflaufwirkung gegen TRZAS, Triticum aestivum, item CC(C)(OC(=O)c1cc(-n2c(=O)cc(C(F)(F)F)n(N)c2=O)ccc1Cl)C(=O)O [I.2-481] = 20

# value of Nachauflaufwirkung gegen TRZAS, Triticum aestivum, item COCCOC(=O)C(C)(C)OC(=O)c1cc(-n2c(=O)cc(C(F)(F)F)n(N)c2=O)ccc1Cl [I.2-1] = 10

---

System: Triticum aestivum
Experiment: Post-emergence action on crop plants in greenhouse, TRZAS
Type: in vivo
Conditions: 5 g/ha, crop plant, visual rating after ca. 3 weeks, 100% = plants dead, 0% = like control plants
Assign Nachauflaufwirkung gegen TRZAS to each entry below.
A bare number is not enough; add the unit after it.

# value of Nachauflaufwirkung gegen TRZAS, Triticum aestivum, item CC(C)=NOC(=O)C(C)(C)OC(=O)c1cc(-n2c(=O)cc(C(F)(F)F)n(N)c2=O)c(F)cc1Cl = 0%

# value of Nachauflaufwirkung gegen TRZAS, Triticum aestivum, item CC(C)(OC(=O)c1cc(-n2c(=O)cc(C(F)(F)F)n(N)c2=O)ccc1Cl)C(=O)O = 0%

# value of Nachauflaufwirkung gegen TRZAS, Triticum aestivum, item CC(C)=NOC(=O)C(C)(C)OC(=O)c1cc(-n2c(=O)cc(C(F)(F)F)n(N)c2=O)ccc1Cl = 0%

# value of Nachauflaufwirkung gegen TRZAS, Triticum aestivum, item CC(C)(OC(=O)c1cc(-n2c(=O)cc(C(F)(F)F)n(N)c2=O)ccc1Cl)C(=O)OCC#N = 0%

# value of Nachauflaufwirkung gegen TRZAS, Triticum aestivum, item COCCOC(=O)C(C)(C)OC(=O)c1cc(-n2c(=O)cc(C(F)(F)F)n(N)c2=O)c(F)cc1Cl = 0%

# value of Nachauflaufwirkung gegen TRZAS, Triticum aestivum, item C=CCOC(=O)C(C)(C)OC(=O)c1cc(-n2c(=O)cc(C(F)(F)F)n(N)c2=O)ccc1Cl = 0%

# value of Nachauflaufwirkung gegen TRZAS, Triticum aestivum, item COCCOC(=O)C(C)(C)OC(=O)c1cc(-n2c(=O)cc(C(F)(F)F)n(N)c2=O)ccc1Cl = 0%

# value of Nachauflaufwirkung gegen TRZAS, Triticum aestivum, item CC(C)(OC(=O)c1cc(-n2c(=O)cc(C(F)(F)F)n(N)c2=O)c(F)cc1Cl)C(=O)OCC#N = 20%

# value of Nachauflaufwirkung gegen TRZAS, Triticum aestivum, item C=CCOC(=O)C(C)(C)OC(=O)c1cc(-n2c(=O)cc(C(F)(F)F)n(N)c2=O)c(F)cc1Cl = 20%

# value of Nachauflaufwirkung gegen TRZAS, Triticum aestivum, item CC(C)(OC(=O)c1cc(-n2c(=O)cc(C(F)(F)F)n(N)c2=O)c(F)cc1Cl)C(=O)OCc1ccccn1 = 10%

# value of Nachauflaufwirkung gegen TRZAS, Triticum aestivum, item CC(C)(OC(=O)c1cc(-n2c(=O)cc(C(F)(F)F)n(N)c2=O)ccc1Cl)C(=O)OCc1ccccn1 = 0%

---

Tested on: Setaria viridis
Experiment: Post-emergence herbicidal action in greenhouse against SETVI
Assay type: in vivo
Conditions: 5 g/ha, visual rating after ca. 3 weeks
measurementKind: Nachauflaufwirkung gegen SETVI
A bare number is not enough; add the unit after it.

Please fill in: Nachauflaufwirkung gegen SETVI reported for COCCOC(=O)C(C)(C)OC(=O)c1cc(-n2c(=O)cc(C(F)(F)F)n(N)c2=O)ccc1Cl [I.2-1] = 100%

Please fill in: Nachauflaufwirkung gegen SETVI reported for C=CCOC(=O)C(C)(C)OC(=O)c1cc(-n2c(=O)cc(C(F)(F)F)n(N)c2=O)ccc1Cl [I.2-471] = 100%

Please fill in: Nachauflaufwirkung gegen SETVI reported for C=CCOC(=O)C(C)(C)OC(=O)c1cc(-n2c(=O)cc(C(F)(F)F)n(N)c2=O)c(F)cc1Cl [I.1-471] = 100%

---

System: Setaria viridis
Assay: Post-emergence herbicidal action in greenhouse against SETVI
Type: in vivo
Details: 5 g/ha, visual rating after ca. 3 weeks
measurementKind: Nachauflaufwirkung gegen SETVI (%)
Give the value, in units of %, as a plain number.

Please fill in: Nachauflaufwirkung gegen SETVI reported for CC(C)(OC(=O)c1cc(-n2c(=O)cc(C(F)(F)F)n(N)c2=O)c(F)cc1Cl)C(=O)OCc1ccccn1 = 100

Please fill in: Nachauflaufwirkung gegen SETVI reported for CC(C)(OC(=O)c1cc(-n2c(=O)cc(C(F)(F)F)n(N)c2=O)ccc1Cl)C(=O)OCc1ccccn1 = 100

Please fill in: Nachauflaufwirkung gegen SETVI reported for CC(C)=NOC(=O)C(C)(C)OC(=O)c1cc(-n2c(=O)cc(C(F)(F)F)n(N)c2=O)c(F)cc1Cl = 100

Please fill in: Nachauflaufwirkung gegen SETVI reported for CC(C)=NOC(=O)C(C)(C)OC(=O)c1cc(-n2c(=O)cc(C(F)(F)F)n(N)c2=O)ccc1Cl = 100

Please fill in: Nachauflaufwirkung gegen SETVI reported for CC(C)(OC(=O)c1cc(-n2c(=O)cc(C(F)(F)F)n(N)c2=O)ccc1Cl)C(=O)O = 90

Please fill in: Nachauflaufwirkung gegen SETVI reported for CC(C)(OC(=O)c1cc(-n2c(=O)cc(C(F)(F)F)n(N)c2=O)c(F)cc1Cl)C(=O)OCC#N = 100

Please fill in: Nachauflaufwirkung gegen SETVI reported for COCCOC(=O)C(C)(C)OC(=O)c1cc(-n2c(=O)cc(C(F)(F)F)n(N)c2=O)c(F)cc1Cl = 100

---

Assign Nachauflaufwirkung gegen SETVI to each entry below.
System: Setaria viridis
Test: Post-emergence herbicidal action in greenhouse against SETVI
Format: in vivo
Settings: 1,25 g/ha, visual rating after ca. 3 weeks
Give the value, in units of %, as a plain number.

Please fill in: Nachauflaufwirkung gegen SETVI reported for COCCOC(=O)C(C)(C)OC(=O)c1cc(-n2c(=O)cc(C(F)(F)F)n(N)c2=O)c(F)cc1Cl [I.1-1] = 100

Please fill in: Nachauflaufwirkung gegen SETVI reported for CC(C)=NOC(=O)C(C)(C)OC(=O)c1cc(-n2c(=O)cc(C(F)(F)F)n(N)c2=O)ccc1Cl [I.2-491] = 90

Please fill in: Nachauflaufwirkung gegen SETVI reported for CC(C)=NOC(=O)C(C)(C)OC(=O)c1cc(-n2c(=O)cc(C(F)(F)F)n(N)c2=O)c(F)cc1Cl [I.1-491] = 100

Please fill in: Nachauflaufwirkung gegen SETVI reported for CC(C)(OC(=O)c1cc(-n2c(=O)cc(C(F)(F)F)n(N)c2=O)ccc1Cl)C(=O)OCc1ccccn1 [I.2-286] = 90

---

Assign Nachauflaufwirkung gegen TRZAS to each entry below.
Test system: Triticum aestivum
Assay: Post-emergence action on crop plants in greenhouse, TRZAS
Assay type: in vivo
Conditions: 1,25 g/ha, crop plant, visual rating after ca. 3 weeks, 100% = plants dead, 0% = like control plants
Give the value, in units of %, as a plain number.

Please fill in: Nachauflaufwirkung gegen TRZAS reported for CC(C)(OC(=O)c1cc(-n2c(=O)cc(C(F)(F)F)n(N)c2=O)ccc1Cl)C(=O)OCC#N = 0

Please fill in: Nachauflaufwirkung gegen TRZAS reported for CC(C)=NOC(=O)C(C)(C)OC(=O)c1cc(-n2c(=O)cc(C(F)(F)F)n(N)c2=O)ccc1Cl = 0

Please fill in: Nachauflaufwirkung gegen TRZAS reported for CC(C)(OC(=O)c1cc(-n2c(=O)cc(C(F)(F)F)n(N)c2=O)ccc1Cl)C(=O)O = 0

Please fill in: Nachauflaufwirkung gegen TRZAS reported for C=CCOC(=O)C(C)(C)OC(=O)c1cc(-n2c(=O)cc(C(F)(F)F)n(N)c2=O)c(F)cc1Cl = 0

Please fill in: Nachauflaufwirkung gegen TRZAS reported for C=CCOC(=O)C(C)(C)OC(=O)c1cc(-n2c(=O)cc(C(F)(F)F)n(N)c2=O)ccc1Cl = 0

Please fill in: Nachauflaufwirkung gegen TRZAS reported for CC(C)=NOC(=O)C(C)(C)OC(=O)c1cc(-n2c(=O)cc(C(F)(F)F)n(N)c2=O)c(F)cc1Cl = 0

Please fill in: Nachauflaufwirkung gegen TRZAS reported for CC(C)(OC(=O)c1cc(-n2c(=O)cc(C(F)(F)F)n(N)c2=O)c(F)cc1Cl)C(=O)OCc1ccccn1 = 0
